Examples of molecules with documented Max AC8 Inh (%) follow.
# tested_on: UniProt:P40145
# Sequence (P40145 whole entry, species assumed): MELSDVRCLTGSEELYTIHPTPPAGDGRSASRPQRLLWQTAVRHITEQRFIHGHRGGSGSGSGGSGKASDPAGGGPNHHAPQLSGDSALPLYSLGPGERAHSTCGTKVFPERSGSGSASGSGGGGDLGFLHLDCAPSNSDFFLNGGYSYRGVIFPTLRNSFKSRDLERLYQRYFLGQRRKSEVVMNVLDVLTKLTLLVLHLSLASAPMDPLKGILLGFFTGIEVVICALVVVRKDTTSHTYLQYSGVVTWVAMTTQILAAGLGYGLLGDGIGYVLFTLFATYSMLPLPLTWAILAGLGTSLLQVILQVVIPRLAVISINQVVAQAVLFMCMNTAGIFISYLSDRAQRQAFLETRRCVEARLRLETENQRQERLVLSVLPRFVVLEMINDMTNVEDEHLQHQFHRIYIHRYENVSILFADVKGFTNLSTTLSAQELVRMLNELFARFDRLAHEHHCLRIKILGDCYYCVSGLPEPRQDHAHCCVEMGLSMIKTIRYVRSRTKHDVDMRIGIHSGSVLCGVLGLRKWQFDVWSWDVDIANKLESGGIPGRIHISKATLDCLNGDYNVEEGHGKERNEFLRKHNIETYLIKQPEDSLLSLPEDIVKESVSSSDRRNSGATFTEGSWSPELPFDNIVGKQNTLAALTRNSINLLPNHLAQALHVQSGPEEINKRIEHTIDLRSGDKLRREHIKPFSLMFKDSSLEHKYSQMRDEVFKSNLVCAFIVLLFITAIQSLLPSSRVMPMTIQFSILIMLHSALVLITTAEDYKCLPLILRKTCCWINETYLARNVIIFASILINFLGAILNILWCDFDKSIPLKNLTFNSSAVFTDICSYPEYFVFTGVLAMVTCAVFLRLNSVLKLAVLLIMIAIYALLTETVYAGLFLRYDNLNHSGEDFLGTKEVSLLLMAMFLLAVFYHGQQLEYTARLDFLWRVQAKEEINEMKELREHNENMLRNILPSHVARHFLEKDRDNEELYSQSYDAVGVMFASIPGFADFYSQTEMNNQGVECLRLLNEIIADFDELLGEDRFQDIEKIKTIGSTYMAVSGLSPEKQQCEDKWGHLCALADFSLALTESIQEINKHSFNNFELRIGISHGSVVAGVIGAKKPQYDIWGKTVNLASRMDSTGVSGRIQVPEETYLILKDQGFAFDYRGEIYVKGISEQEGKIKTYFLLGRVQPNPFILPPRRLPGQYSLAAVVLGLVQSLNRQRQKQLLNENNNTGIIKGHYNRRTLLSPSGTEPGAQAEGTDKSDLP
# assay_protocol: cAMP accumulation (HTRF) in HEK cells stably expressing AC8, stimulated with A23187
# Assay type: cell-based
# Set-up: expressed in transfected cells; host or cells: HEK cells stably expressing AC8 (HEK-AC8), hygromycin B selection
# experimental_context: Table 1; maximum inhibition of AC8
Return type: number; implicit unit %.

Some entries whose results are on file:
{"smiles_record": "CCc1cc(=O)[nH]c(-n2nc(C)cc2NC(=O)c2ccccc2CC)n1", "tested_on": "UniProt:P40145", "Max AC8 Inh (%)": 21}
{"smiles_record": "CCc1cc(=O)[nH]c(-n2nc(C)cc2NC(=O)c2ccccn2)n1", "tested_on": "UniProt:P40145", "Max AC8 Inh (%)": 46}

Qu. Which value of Max AC8 Inh (%) has been reported for CCc1cc(=O)[nH]c(-n2nc(C)cc2NC(=O)c2cccc(C(C)C)c2)n1 in the records?
Ans. 28

Qu. What do we get for CCc1cc(=O)[nH]c(-n2nc(C)cc2NC(=O)Cc2cccc(C)c2)n1 ?
Ans. 59

Qu. What do we get for CCc1cc(=O)[nH]c(-n2nc(C)cc2NC(=O)c2ccc(C)cc2)n1 ?
Ans. 27

Qu. What do we get for CCc1cc(=O)[nH]c(-n2nc(C)cc2NC(=O)c2cccc(OC)c2)n1 ?
Ans. 5

Qu. What do we get for CCc1cc(=O)[nH]c(-n2nc(C)cc2NC(=O)c2cccc(Cl)c2)n1 ?
Ans. 48
